Give measured IC50 for each item. Keep answers brief.
- TARGET UNDER TEST: Src Kinase (p60c-Src) (Homo sapiens)
- Sequence (P12931 whole entry): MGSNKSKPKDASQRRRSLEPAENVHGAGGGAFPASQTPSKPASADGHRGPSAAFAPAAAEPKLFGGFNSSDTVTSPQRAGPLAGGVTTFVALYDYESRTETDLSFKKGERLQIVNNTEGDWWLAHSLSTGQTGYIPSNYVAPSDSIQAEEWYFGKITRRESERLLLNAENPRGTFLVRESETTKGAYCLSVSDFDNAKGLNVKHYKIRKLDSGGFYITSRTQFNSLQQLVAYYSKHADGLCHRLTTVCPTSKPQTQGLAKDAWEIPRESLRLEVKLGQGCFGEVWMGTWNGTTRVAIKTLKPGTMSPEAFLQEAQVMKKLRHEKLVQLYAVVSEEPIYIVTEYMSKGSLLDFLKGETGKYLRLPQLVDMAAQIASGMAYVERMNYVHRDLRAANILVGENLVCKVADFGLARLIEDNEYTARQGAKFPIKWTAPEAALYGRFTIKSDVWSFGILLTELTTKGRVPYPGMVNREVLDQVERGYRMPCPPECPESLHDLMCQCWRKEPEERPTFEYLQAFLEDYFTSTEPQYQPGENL
- ASSAY COMMENT: General Assay Method for Src-Kinase (DELFIA time-resolved fluorometry, poly(Glu,Tyr) substrate)
- RUN PARAMETERS: Src kinase 1:8000, 100 μM ATP, 15 min. at room temp; read-out: Activity (uMol. Delfia assay. IC50)
Your answer is read as µM, so omit the unit and give the number.

Which IC50 value is on record for N=C(N)c1ccc(C(=O)N(Cc2cccc(Oc3ccccc3)c2)C(Cc2ccc(-c3ccccc3)cc2)C(=O)NCC(N)=O)cc1 (stereo not shown) ?
22

Subsequent entry: NC(=O)C(Cc1ccc2ccccc2c1)NC(=O)Nc1ccc(N2CCCN(C(=O)C3CCNCC3)CC2)c(NC(=O)c2cc3ccccc3o2)c1 (stereo not shown)
2.75

And the next one, CC(C)C(NS(=O)(=O)c1cc(NC(=O)C2CCNCC2)ccc1N1CCC(Cc2ccccc2)CC1)C(N)=O (stereo not shown) ?
12

Now this one: CC(C)(C)c1ccc(Oc2cccc(CN(C(=O)c3cccc(C(=N)N)c3)C(Cc3ccc(N)cc3)C(=O)NCC(N)=O)c2)cc1 (stereo not shown)
45
